Molecular target: DRB1*0802 (DR8w2) (Homo sapiens, UniProt P01903+P01911, A100R/A103L/A169T/F76Y/H45Y/I96F/K41T/L162R/M171V/P40S/Q125H/Q178H/Q39Y/Q99D/R218S/R42G/S66Y/V115G/W38E)
Construct: used as sources of human HLA class II molecules; endogenous in cells; host or cells: OLL (EBV-transformed homozygous B cell line)
Assay: Class II peptide-binding assay, DR8w2
Conditions: Table V A) Non Predictions; read-out: Binding Capacity DR8w2
Ends that are not written are not given here.
// reported IC50 for each item listed
endpoint: IC50 (nM)

sequence_string="GPPTALRSFGFAFGYM [Peptide 1136.29]" endpoint=IC50 recorded_result=2970
sequence_string="LFHYYFLSEKAPGSTV [Peptide 1136.04]" endpoint=IC50 recorded_result=55
sequence_string="WLFPRFKFVWVTYASW [Peptide 1136.44.01]" endpoint=IC50 recorded_result=6360

* * *

Molecular target: DRB1*0401 (DR4w4) (Homo sapiens, UniProt P01903+P01911, A100K/A169T/F76Y/I96L/K127E/L162R/M171V/N62H/P40V/Q125Y/R42H/S133A/S149N/S66Y/V115G/V209L/W38E)
Construct: used as sources of human HLA class II molecules; endogenous in cells; host or cells: PREISS (EBV-transformed homozygous B cell line)
Experiment: Class II peptide-binding assay, DR4w4;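 further: unlabeled test peptides compete with a radiolabeled probe peptide for binding to affinity-purified HLA-DR, with DR amount titrated to capture a small fraction of label, IC50 approximating Kd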
Conditions: read-out: In IC50 Format DR4w4; Table VIII
pIC50: −log10 of the molar value. Ends that are not written are not given here.
Lab note: anything with pIC50 at or over 7 counts as yes (1); the rest go in no (0).

sequence_string="ARRLKAIYARRLK [Peptide 640.04]" answer_label="no (0)"
sequence_string="FFKNIVTPRFFKNIVTPR [Peptide 613.03]" answer_label="no (0)"
sequence_string="INSWVESQTNGIIR [Peptide 608.02]" answer_label="no (0)"
sequence_string="KIAKMEKASSVFNVVNS [Peptide 526.01]" answer_label="no (0)"
sequence_string="DVFKELKVHHANENI [Peptide 519.00]" answer_label="yes (1)"

* * *

Recorded measurements of pIC50, one per entry
Biological target: DRB1*0701 (DR7) (Homo sapiens, UniProt P01903+P01911, A100R/A102G/A103Q/D57E/D86V/E43K/F76Y/K127E/L162R/M171V/P40G/Q125H/Q99D/R33Q/R42Y/R54Q/S133A/S66F/T210M/V115G/Y107V/Y59L/Y89S)
Experiment: Class II peptide-binding assay, DR7
Settings: read-out: DR7 nM (In IC50 Format); purified HLA DR7
pIC50: −log10 of the molar value. Ends that are not written are not given here.
endpoint: pIC50

substance="LSGSHLVEALYLVSGERGFF [Peptide 734.02]" endpoint=pIC50 recorded_result=6.91
substance="YARFQSQTTLAAKT-NH2 [Peptide 717.50]" endpoint=pIC50 recorded_result=5.38
substance="YARFQSQTTAKAKT-NH2 [Peptide 717.51]" endpoint=pIC50 recorded_result=5.20
substance="YARFQAQTTLKAKT-NH2 [Peptide 717.55]" endpoint=pIC50 recorded_result=5.30
substance="YARFQSQTTLEAKT-NH2 [Peptide 717.22]" endpoint=pIC50 recorded_result=5.56
substance="YIAFLKQATAKLAT [Peptide 723.01]" endpoint=pIC50 recorded_result=7.81
substance="NPVVHFFKNIVTPRTPPPS [Peptide 765.09]" endpoint=pIC50 recorded_result=7.18
substance="YSRFQSQTTLKAKT-NH2 [Peptide 717.38]" endpoint=pIC50 recorded_result=5.20
substance="YARFQSQTYLKAKT-NH2 [Peptide 717.33]" endpoint=pIC50 recorded_result=6.19
substance="YARFQSQTTLKAET-NH2 [Peptide 717.26]" endpoint=pIC50 recorded_result=5.38
substance="YARFQSQTTLKAKT-NH2 [Peptide 717.02]" endpoint=pIC50 recorded_result=5.56

* * *

Target: DRB5*0101 (DR2w2a) (Homo sapiens, UniProt P01903+Q30154)
Construct: used as sources of human HLA class II molecules; endogenous in cells; host or cells: GM3107 (EBV-transformed homozygous B cell line)
Test: Class II peptide-binding assay, DR2w2a (DR2w2B2);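 further: competitive binding assay: unlabeled peptide inhibiting binding of a radiolabeled probe peptide to purified DR molecules at pH 7.0, IC50 approximating Kd, lower means stronger binding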
Conditions: read-out: In IC50 Format DR2w2B2 nM; Table VIII; values in parentheses read as lower bounds
Ends that are not written are not given here.
endpoint: IC50

sequence_string="ARLLDIDETEYHADG [Peptide 39.0366]" recorded_result="> 28.6 µM"

* * *

Here the recorded IC50 is given for each entry.
Biological target: DRB1*1101 (DR5w11) (Homo sapiens, UniProt P01903+P01911, A100R/A169T/A87E/I96F/K41T/L162R/M171V/P40S/Q125H/Q178H/Q39Y/Q99D/R42S/S66Y/T262R/V115G/W38E)
Construct: used as sources of human HLA class II molecules; endogenous in cells; host or cells: SWEIG (EBV-transformed homozygous B cell line)
Sequence (P01903 26-254, other chains not shown): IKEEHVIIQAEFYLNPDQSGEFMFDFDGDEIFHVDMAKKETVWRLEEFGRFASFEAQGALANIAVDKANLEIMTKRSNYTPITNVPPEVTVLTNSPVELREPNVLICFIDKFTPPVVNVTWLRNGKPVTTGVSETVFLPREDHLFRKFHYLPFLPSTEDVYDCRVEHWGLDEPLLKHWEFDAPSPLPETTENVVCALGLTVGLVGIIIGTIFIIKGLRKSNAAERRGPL
Assay: Class II peptide-binding assay, DR5w11
Settings: Table V A) Non Predictions; read-out: Binding Capacity DR5w11
Ends that are not written are not given here.
endpoint: IC50 (µM)

sequence_string="GPPTALRSFGFAFGYM [Peptide 1136.29]" endpoint=IC50 unit_text=µM recorded_result=6.25
sequence_string="LFHYYFLSEKAPGSTV [Peptide 1136.04]" endpoint=IC50 unit_text=µM recorded_result=0.069
sequence_string="WLFPRFKFVWVTYASW [Peptide 1136.44.01]" endpoint=IC50 unit_text=µM recorded_result=4

* * *

Biological target: DRB1*1101 (DR5w11) (Homo sapiens, UniProt P01903+P01911, A100R/A169T/A87E/I96F/K41T/L162R/M171V/P40S/Q125H/Q178H/Q39Y/Q99D/R42S/S66Y/T262R/V115G/W38E)
Construct: used as sources of human HLA class II molecules; endogenous in cells; host or cells: SWEIG (EBV-transformed homozygous B cell line)
Test: Class II peptide-binding assay, DR5w11;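 further: competition by unlabeled test peptide against iodinated probe peptide binding to affinity-purified HLA-DR, class II amount titrated beforehand, half-maximal inhibitory concentration read as approximate Kd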
Conditions: read-out: DR5w11 nM (In IC50 Format); purified HLA DR5w11
Ends that are not written are not given here.
Hi! Just check whether IC50 is below 10 nM. Below gives label 1, equal or above gives label 0.

substance="YARFQSQSTLKAKT-NH2 [Peptide 717.16]" answer_label="label 1"
substance="YARFQFQTTLKAKT-NH2 [Peptide 717.46]" answer_label="label 1"
substance="YARFQSQTTLEAKT-NH2 [Peptide 717.22]" answer_label="label 0"
substance="YARYQSQTTLKAKT-NH2 [Peptide 717.42]" answer_label="label 0"
substance="LLVIVELIPSTSS [Peptide 778.00]" answer_label="label 0"
substance="YARFQSQTTLKAKE-NH2 [Peptide 717.28]" answer_label="label 0"
substance="YAEFQSQTTLKAKT-NH2 [Peptide 717.41]" answer_label="label 0"
substance="YARFQSNTTLKAKT-NH2 [Peptide 717.47]" answer_label="label 0"
substance="YARFQSQTTLKAKT-NH2 [Peptide 717.02]" answer_label="label 0"
substance="YARFQRQTTLKAAA-NH2 [Peptide 717.10]" answer_label="label 1"
substance="YARFQSLTTLKAKT-NH2 [Peptide 717.15]" answer_label="label 1"
substance="YARFQSQTTLKART-NH2 [Peptide 717.25]" answer_label="label 0"

* * *

Target: DRB1*0701 (DR7) (Homo sapiens, UniProt P01903+P01911, A100R/A102G/A103Q/D57E/D86V/E43K/F76Y/K127E/L162R/M171V/P40G/Q125H/Q99D/R33Q/R42Y/R54Q/S133A/S66F/T210M/V115G/Y107V/Y59L/Y89S)
Experiment: Class II peptide-binding assay, DR7;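 further: unlabeled peptides compete with an iodinated probe peptide for binding to affinity-purified HLA-DR at neutral pH, DR amount titered to bind a small tracer fraction, IC50 approximating Kd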
Conditions: read-out: DR7 nM (In IC50 Format); purified HLA DR7
pIC50: −log10 of the molar value. Ends that are not written are not given here.
# pIC50 listing for each entry below
endpoint: pIC50

substance="YARFQSQTTLKART-NH2 [Peptide 717.25]" endpoint=pIC50 recorded_result=5.38
substance="YARFQSQTTIKAKT-NH2 [Peptide 717.19]" endpoint=pIC50 recorded_result=5.68
substance="YARFQSQSTLKAKT-NH2 [Peptide 717.16]" endpoint=pIC50 recorded_result=5.45
substance="YARFQSQTTLKAKE-NH2 [Peptide 717.28]" endpoint=pIC50 recorded_result=5.30
substance="LVEALYLVSGERGFFYTPKT [Peptide 734.03]" endpoint=pIC50 recorded_result=6.03
substance="AAFAAAAAQRLFA-NH2 [Peptide 761.01]" endpoint=pIC50 recorded_result=8.12
substance="YARFNSQTTLKAKT-NH2 [Peptide 717.44]" endpoint=pIC50 recorded_result=5.30
substance="Ac-AFAAAATLKA-NH2 [Peptide 770.02]" endpoint=pIC50 recorded_result=6.49
substance="YARAQSQTTLKAKT-NH2 [Peptide 717.29]" endpoint=pIC50 recorded_result=5.45
substance="YARFASQTTLKAKT-NH2 [Peptide 717.56]" endpoint=pIC50 recorded_result=5.20
substance="KSNTATSATQRLANSLVH [Peptide 735.01]" endpoint=pIC50 recorded_result=4.90
substance="YARFQSQTTLKSKT-NH2 [Peptide 717.23]" endpoint=pIC50 recorded_result=5.08
substance="ASQKRPSQRSKYLATAST [Peptide 765.011]" endpoint=pIC50 recorded_result=6.02
substance="LVHSSNNFGAILSSTNVGS [Peptide 735.04]" endpoint=pIC50 recorded_result=6.02
substance="YARFQSQTVLKAKT-NH2 [Peptide 717.32]" endpoint=pIC50 recorded_result=6.82
substance="YARFQSQTTLKAKT [Peptide 717.67]" endpoint=pIC50 recorded_result=5.86
substance="KYLATASTMDHARHGFLP [Peptide 765.02]" endpoint=pIC50 recorded_result=6.80
substance="YAEFQSQTTLKAKT-NH2 [Peptide 717.41]" endpoint=pIC50 recorded_result=4.60
substance="CPIAIMSALAMVYLGAKDS [Peptide 705.04]" endpoint=pIC50 recorded_result=5.96
substance="YARFQSQTSLKAKT-NH2 [Peptide 717.31]" endpoint=pIC50 recorded_result=6.17
substance="YASFVSQTAQRLFY-NH2 [Peptide 717.03]" endpoint=pIC50 recorded_result=7.60
substance="TSATQRLANSLVHSSNNFG [Peptide 735.02]" endpoint=pIC50 recorded_result=6.43
substance="YARFQSNTTLKAKT-NH2 [Peptide 717.47]" endpoint=pIC50 recorded_result=5.38
substance="YARFQSLTTLKAKT-NH2 [Peptide 717.15]" endpoint=pIC50 recorded_result=6.02
substance="AFAAAATLKA-NH2 [Peptide 770.01]" endpoint=pIC50 recorded_result=6.16
substance="YARFQSQTALKAKT-NH2 [Peptide 717.52]" endpoint=pIC50 recorded_result=5.94
